assay: Selectivity index, ratio of IC50 for HEK293T cells tobIC50 for chloroquine-sensitive Plasmodium falciparum 3D7; type: toxicity; details: human, read-out: Ratio IC50
Quantity Kind: selectivity ratio
Please reply with the number alone, leaving off any unit.

[in] Tell us which selectivity ratio value is on record for C=C(C)[C@@H]1CC[C@]2(C(=O)NCCCN3CCN(CCCN)CC3)CC[C@]3(C)[C@H](CC[C@@H]4[C@@]5(C)CC[C@H](OC(C)=O)C(C)(C)[C@@H]5CC[C@]43C)[C@@H]12
[out] 23

====

tested on: Leishmania infantum; test: Antileishmanial activity against Leishmania infantum promastigotes after 2 to 24 hrs by Giemsa staining-based microscopic analysis; type: functional, organism-based
Quantity Kind: pIC50
Scale for pIC50: -log10 of concentration given in mol/L; no unit attached.

[in] Tell us which pIC50 value is on record for C=C(C)[C@@H]1CC[C@]2(C(=O)n3ccnc3)CC[C@]3(C)[C@H](CC[C@@H]4[C@@]5(C)C=C(OC(=O)n6ccnc6)C(=O)C(C)(C)[C@@H]5CC[C@]43C)[C@@H]12
[out] 4.59

[in] Tell us which pIC50 value is on record for CCCCCCCCCCCCCCCCOP(=O)([O-])OCC[N+](C)(C)C
[out] 5.22

[in] Tell us which pIC50 value is on record for C=C(CC=O)[C@@H]1CC[C@]2(COC(=O)n3ccnc3)CC[C@]3(C)[C@H](CC[C@@H]4[C@@]5(C)CC[C@H](O)C(C)(C)[C@@H]5CC[C@]43C)[C@@H]12
[out] 4.29
